We begin with IC50 values for UniProtKB P21397, as collected from the published literature.

| compound | system-name | IC50 |
| --- | --- | --- |
| Cc1cc(CNC(=O)c2c(Cl)cccc2Cl)ccc1-c1cc[nH]c(=O)c1 | UniProtKB P21397 | > 130 µM |
| C[C@@H](C(N)=O)N1C(=O)c2ccc(OCc3cccc(F)c3)cc2C1=O | UniProtKB P21397 | 5.76 µM |
| O=C(Nc1ccc([C@@H]2C[C@H]2NCC2CC2)cc1)c1ccc(-n2cccc2)cc1 (relative stereo) | UniProtKB P21397 | 7.5 µM |
| CS(=O)(=O)Nc1ccc(-c2coc3cc(C#Cc4cccnc4)ccc3c2=O)cc1 | UniProtKB P21397 | > 130 µM |
| Cc1cccc(Cl)c1C(=O)NCc1ccc(-c2cccc(=O)[nH]2)cc1 | UniProtKB P21397 | > 10 µM |
| CS(=O)(=O)Nc1ccc(-c2coc3cc(C#CC4(O)CCCCC4)ccc3c2=O)cc1 | UniProtKB P21397 | > 130 µM |
| O=C(Nc1ccc([C@@H]2C[C@H]2NCCCc2ccccc2)cc1)c1ccccc1 (relative stereo) | UniProtKB P21397 | > 10 µM |
| O=C1c2ccc(OCc3ccc(F)cc3)cc2C(=O)N1Cc1cccs1 | UniProtKB P21397 | > 10 µM |

IN: Requested read-out: IC50. Entry: CCOC(=O)c1ccc(COc2ccc3c(=O)c(-c4ccc(O)cc4)coc3c2)cc1
OUT: 24 µM

IN: Now give it for O=C(Nc1ccc([C@@H]2C[C@H]2NCc2ccccc2)cc1)c1ccc(-c2ccccc2)cc1 (relative stereo) too.
OUT: 1.3 µM

IN: What do you have for CCCCCCCCCCCCN[C@@H]1C[C@H]1c1ccc(NC(=O)c2ccccc2)cc1 (relative stereo) ?
OUT: 3.6 µM

IN: Now give it for O=C(Nc1ccc([C@@H]2C[C@H]2NCC2CC2)cc1)c1c[nH]c2ccccc12 (relative stereo) too.
OUT: > 10 µM

IN: And then CN(C)c1ccc(C(=O)Nc2ccc([C@@H]3C[C@H]3NCC3CC3)cc2)cc1 (relative stereo) , what is it?
OUT: > 10 µM

IN: And the next one, CS(=O)(=O)Nc1ccc(-c2coc3cc(C#CC4CN(C(=O)OC5CCCC5)C4)ccc3c2=O)cc1 ?
OUT: > 130 µM

IN: Cool, now CN1CCN(c2ccc(C(=O)Nc3ccc([C@@H]4C[C@H]4NCC4CC4)cc3)cc2)CC1 (relative stereo)
OUT: > 10 µM

IN: Likewise for O=C(Nc1ccc([C@@H]2C[C@H]2NCC2CC2)cc1)c1ccc2nc(-c3ccsc3)[nH]c2c1 (relative stereo) ?
OUT: > 10 µM

IN: Now consider O=C(Nc1ccc([C@@H]2C[C@H]2NCC2CC2)cc1)c1ccc2ncsc2c1 (relative stereo) and answer again.
OUT: > 10 µM

IN: Would you kindly repeat that for CC(C)(C)c1cccc(C(=O)Nc2ccc([C@@H]3C[C@H]3NCc3ccccc3)cc2)c1 (relative stereo) ?
OUT: > 10 µM

IN: Would you kindly repeat that for C[C@H](NCc1ccc(-c2ccc(Cl)cc2)cc1)C(N)=O ?
OUT: > 100 µM

IN: Likewise for NCCN[C@@H]1C[C@H]1c1ccc(NC(=O)c2ccc(-c3ccccc3)cc2)cc1 (relative stereo) ?
OUT: > 10 µM

IN: Follow-up entry: NC(=O)CNC(=O)c1ccc(OCc2ccccc2)nc1
OUT: > 10 µM

IN: Check CN1CCC(N[C@@H]2C[C@H]2c2ccc(NC(=O)c3cccc(Br)c3)cc2)CC1 (relative stereo) too.
OUT: 7.7 µM

IN: Also CCC(CC)N[C@@H]1C[C@H]1c1ccc(NC(=O)c2ccc(-c3ccccc3)cc2)cc1 (relative stereo) ?
OUT: > 10 µM

IN: Proceed to O=C(NCc1ccc(-c2[nH]c(=O)ccc2F)cc1)c1c(Cl)cccc1Cl
OUT: > 10 µM

IN: How about this compound: CC(C)n1cncc1C#Cc1ccc2c(=O)c(-c3ccc(NS(C)(=O)=O)cc3)coc2c1
OUT: > 130 µM
